Cited source: patent US8552048B2

# assay-summary: Pharmacokinetics of TH302 in Beagle Dogs (Table 6)
# Assay type: in vivo
# condition-info: female, dog, plasma, intravenous, Females, 16 mg/kg
metric-name: AUC (ng·h/mL)

| molecule | metric-name | assay-result |
| --- | --- | --- |
| Cn1c(COP(=O)(NCCBr)NCCBr)cnc1[N+](=O)[O-] [TH302] | AUC | 7660 |

====

# assay-summary: Pharmacokinetics in Sprague-Dawley rats (single dose i.v. and p.o.)
# Assay type: in vivo, male Sprague-Dawley rats
# condition-info: male, Sprague-Dawley, rat, plasma, iv, 1 mg/kg, rats, 1 mg/kg i.v. bolus, individual animals; read-out: T1/2 (converted)

| molecule | half-life / h |
| --- | --- |
| Cn1c(COP(=O)(NCCBr)NCCBr)cnc1[N+](=O)[O-] | 1.75 |

====

# assay-summary: Pharmacokinetics in Sprague-Dawley rats (single dose i.v. and p.o.)
# Assay type: in vivo, male Sprague-Dawley rats
# condition-info: male, Sprague-Dawley, rat, in vivo, iv, 5 mg/kg, rats, 5 mg/kg i.v. bolus, MEAN; read-out: CL (converted)
# Description: Pharmacokinetic studies were performed in male CD-1 (50 mg/kg i.p. or orally (p.o.)) or female nude mice (50 mg/kg i.v. or i.p.), male Sprague-Dawley rats (1, 5, 20 and 50 mg/kg i.v. and 100 mg/kg, p.o.), beagle dogs (20 mg/kg, i.v.) and cynomologus monkeys (20 mg/kg i.v.). Plasma TH302 concentrations were analyzed using a LC/MS method and the pharmacokinetic parameters computed using a noncompartmental method. Interspecies scaling was performed according to standard methods. […]
metric-name: clearance

| molecule | metric-name | assay-result |
| --- | --- | --- |
| Cn1c(COP(=O)(NCCBr)NCCBr)cnc1[N+](=O)[O-] | clearance | 102 mL/min/kg |

====

# assay-summary: Pharmacokinetics after repeated administration (Q7D×3) to dogs
# Assay type: in vivo
# condition-info: dog, plasma, intravenous; TH302 in dogs, 4 mg/kg Q7D×3, Day 15; read-out: Cmax

| compound | Cmax [ng/mL] |
| --- | --- |
| Cn1c(COP(=O)(NCCBr)NCCBr)cnc1[N+](=O)[O-] [TH302] | 1580 |

====

# assay-summary: Pharmacokinetics of TH302 in Beagle Dogs (Table 6)
# Assay type: in vivo
# condition-info: female, dog, plasma, intravenous, Females, 8 mg/kg

| molecule | units-symbol | clearance |
| --- | --- | --- |
| Cn1c(COP(=O)(NCCBr)NCCBr)cnc1[N+](=O)[O-] | mL/min/kg | 39.7 |

====

# assay-summary: Pharmacokinetics of TH302 in Beagle Dogs (Table 6)
# Format: in vivo
# condition-info: male, dog, plasma, intravenous, Males, 16 mg/kg, read-out: Vss

| compound | Vd (L/kg) |
| --- | --- |
| Cn1c(COP(=O)(NCCBr)NCCBr)cnc1[N+](=O)[O-] [TH302] | 1.1 |

====

# assay-summary: Pharmacokinetics in Sprague-Dawley rats (single dose i.v. and p.o.)
# Type: in vivo, male Sprague-Dawley rats
# condition-info: male, Sprague-Dawley, rat, plasma, iv, 50 mg/kg, rats, 50 mg/kg i.v. bolus, individual animals; read-out: MRT
metric-name: MRT (min)

| molecule | metric-name | assay-result |
| --- | --- | --- |
| Cn1c(COP(=O)(NCCBr)NCCBr)cnc1[N+](=O)[O-] [TH302] | MRT | 17.4 |
